Each recorded value in this set is attributed to ChEMBL document CHEMBL5154831.

target: UniProtKB P30518
Sequence (P30518 whole entry): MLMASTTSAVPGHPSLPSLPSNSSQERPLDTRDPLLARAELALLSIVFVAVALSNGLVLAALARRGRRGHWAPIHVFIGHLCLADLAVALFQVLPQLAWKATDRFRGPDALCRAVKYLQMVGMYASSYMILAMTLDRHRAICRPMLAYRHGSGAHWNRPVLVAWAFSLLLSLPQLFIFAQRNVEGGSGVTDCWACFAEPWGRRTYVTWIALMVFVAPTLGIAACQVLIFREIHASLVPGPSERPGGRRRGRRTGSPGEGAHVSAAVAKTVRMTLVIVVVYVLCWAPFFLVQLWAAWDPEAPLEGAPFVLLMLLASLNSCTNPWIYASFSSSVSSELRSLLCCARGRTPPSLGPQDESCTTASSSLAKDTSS
result.type: Ki (nM)
Dear colleague, please return just the value in nM, with no unit written.

State, for UniProtKB P30518, measured Ki of the compound listed here: CCN(CC)CCCNC1CCCN(C(=O)c2ccc(NC(=O)c3ccccc3C)cc2C)c2ccc(Cl)cc21 (stereo unspecified) 31

* * *

Below: a set of entries, each annotated with reported Tmax.
assay: Tmax in C57BL/6 mouse at 2 mg/kg, sc by LC-MS analysis; format: ADME, organism-based; conditions: in vivo
Respond with the bare value in min.

Cc1ccccc1C(=O)Nc1ccc(C(=O)N2CCCC(NCCCCN3CCOCC3)c3cc(Cl)ccc32)c(C)c1 (stereo not given) : 4.98
Cc1ccccc1C(=O)Nc1ccc(C(=O)N2CCCC(NCCN3CCOCC3)c3cc(Cl)ccc32)c(C)c1 (stereo not given) : 4.98
Cc1ccccc1C(=O)Nc1ccc(C(=O)N2CCCC(NCCCc3ccncc3)c3cc(Cl)ccc32)c(C)c1 (stereo not given) : 16.7
Cc1ccccc1C(=O)Nc1ccc(C(=O)N2CCCC(O)c3cc(Cl)ccc32)c(C)c1 (stereo not given) : 49.8
Cc1ccccc1C(=O)Nc1ccc(C(=O)N2CCCC(NCCCN3CCN(C)CC3)c3cc(Cl)ccc32)c(C)c1 (stereo not given) : 4.98
Cc1ccccc1C(=O)Nc1ccc(C(=O)N2CCCC(NCCCCCN3CCOCC3)c3cc(Cl)ccc32)c(C)c1 (stereo not given) : 8.4
Cc1ccccc1C(=O)Nc1ccc(C(=O)N2CCCC(NCCCN3CCCCC3)c3cc(Cl)ccc32)c(C)c1 (stereo not given) : 19.8
Cc1ccccc1C(=O)Nc1ccc(C(=O)N2CCCC(NCCC(=O)N3CCOCC3)c3cc(Cl)ccc32)c(C)c1 (stereo not given) : 8.4

// fetch Tmax given entry Cc1ccccc1C(=O)Nc1ccc(C(=O)N2CCCC(NCCCN3CCOCC3)c3cc(Cl)ccc32)c(C)c1 (stereo not given) 15

Identify the reported Tmax for the following entry. CCN(CC)CCCNC1CCCN(C(=O)c2ccc(NC(=O)c3ccccc3C)cc2C)c2ccc(Cl)cc21 (stereo not given) 11.4

* * *

assay: Equilibrium solubility of compound in water incubated for 24 hrs by UV-spectroscopy method; type: physicochemical
result.type: solubility thermodynamic at 24 h (µg/mL)
Record the value in µg/mL, omitting the unit from your answer.

Sample records with solubility thermodynamic at 24 h:
Cc1ccccc1C(=O)Nc1ccc(C(=O)N2CCCC(O)c3cc(Cl)ccc32)c(C)c1 (stereo unspecified) : 2.3
Cc1ccccc1C(=O)Nc1ccc(C(=O)N2CCCC(NCCC(=O)N3CCOCC3)c3cc(Cl)ccc32)c(C)c1 (stereo unspecified) : 2.3
Cc1ccccc1C(=O)Nc1ccc(C(=O)N2CCCC(NCCCCN3CCOCC3)c3cc(Cl)ccc32)c(C)c1 (stereo unspecified) : 2.3
Cc1ccccc1C(=O)Nc1ccc(C(=O)N2CCCC(NCCCN3CCOCC3)c3cc(Cl)ccc32)c(C)c1 (stereo unspecified) : 2.3
Cc1ccccc1C(=O)Nc1ccc(C(=O)N2CCCC(NCCN3CCOCC3)c3cc(Cl)ccc32)c(C)c1 (stereo unspecified) : 2.3

Determine from records and report solubility thermodynamic at 24 h for Cc1ccccc1C(=O)Nc1ccc(C(=O)N2CCCC(NCCCN3CCN(C)CC3)c3cc(Cl)ccc32)c(C)c1 (stereo unspecified) 2.3

* * *

assay: AUC (0 to t) in C57BL/6 mouse at 2 mg/kg, sc by LC-MS analysis; assay type: ADME, organism-based; parameters: dose 2 mg/kg, route sc; details: in vivo
Binning scheme for AUC(0-t): bottom = under 500 ng·h/mL, middle = from 500 ng·h/mL up to 600 ng·h/mL, top = 600 ng·h/mL and over

Look over these answered cases.
Cc1ccccc1C(=O)Nc1ccc(C(=O)N2CCCC(NCCCN3CCOCC3)c3cc(Cl)ccc32)c(C)c1 (stereo not given) : top
Cc1ccccc1C(=O)Nc1ccc(C(=O)N2CCCC(NCCCc3ccncc3)c3cc(Cl)ccc32)c(C)c1 (stereo not given) : middle
CCN(CC)CCCNC1CCCN(C(=O)c2ccc(NC(=O)c3ccccc3C)cc2C)c2ccc(Cl)cc21 (stereo not given) : middle
Cc1ccccc1C(=O)Nc1ccc(C(=O)N2CCCC(NCCC(=O)N3CCOCC3)c3cc(Cl)ccc32)c(C)c1 (stereo not given) : bottom
Cc1ccccc1C(=O)Nc1ccc(C(=O)N2CCCC(NCCN3CCOCC3)c3cc(Cl)ccc32)c(C)c1 (stereo not given) : middle
Cc1ccccc1C(=O)Nc1ccc(C(=O)N2CCCC(NCCCCCN3CCOCC3)c3cc(Cl)ccc32)c(C)c1 (stereo not given) : bottom
Cc1ccccc1C(=O)Nc1ccc(C(=O)N2CCCC(O)c3cc(Cl)ccc32)c(C)c1 (stereo not given) : top

Just checking, what class would you give Cc1ccccc1C(=O)Nc1ccc(C(=O)N2CCCC(NCCCN3CCCCC3)c3cc(Cl)ccc32)c(C)c1 (stereo not given) here? top

* * *

Entries and their measured Cmax follow.
assay: Cmax in C57BL/6 mouse at 2 mg/kg, sc by LC-MS analysis; type: ADME, organism-based; parameters: dose 2 mg/kg, route sc; conditions: in vivo
Form entry: value (ng/mL) — number only.

Cc1ccccc1C(=O)Nc1ccc(C(=O)N2CCCC(NCCCCCN3CCOCC3)c3cc(Cl)ccc32)c(C)c1 (centres undefined) : 157
Cc1ccccc1C(=O)Nc1ccc(C(=O)N2CCCC(NCCC(=O)N3CCOCC3)c3cc(Cl)ccc32)c(C)c1 (centres undefined) : 783
CCN(CC)CCCNC1CCCN(C(=O)c2ccc(NC(=O)c3ccccc3C)cc2C)c2ccc(Cl)cc21 (centres undefined) : 426

Next up:
Give the reported value of Cmax for this record: Cc1ccccc1C(=O)Nc1ccc(C(=O)N2CCCC(NCCCN3CCCCC3)c3cc(Cl)ccc32)c(C)c1 (centres undefined) 419

* * *

experiment: Half life in C57BL/6 mouse at 2 mg/kg, sc by LC-MS analysis; assay type: ADME, organism-based; conditions: in vivo
result.type: half-life (h)
Expressed in h, but write only the number.

Below, 5 molecules whose answers are already recorded.
Cc1ccccc1C(=O)Nc1ccc(C(=O)N2CCCC(NCCCc3ccncc3)c3cc(Cl)ccc32)c(C)c1 (stereo not given) : 0.533
Cc1ccccc1C(=O)Nc1ccc(C(=O)N2CCCC(NCCN3CCOCC3)c3cc(Cl)ccc32)c(C)c1 (stereo not given) : 0.47
Cc1ccccc1C(=O)Nc1ccc(C(=O)N2CCCC(O)c3cc(Cl)ccc32)c(C)c1 (stereo not given) : 4.1
Cc1ccccc1C(=O)Nc1ccc(C(=O)N2CCCC(NCCCN3CCN(C)CC3)c3cc(Cl)ccc32)c(C)c1 (stereo not given) : 7
Cc1ccccc1C(=O)Nc1ccc(C(=O)N2CCCC(NCCC(=O)N3CCOCC3)c3cc(Cl)ccc32)c(C)c1 (stereo not given) : 0.29

Shifting focus to the molecule that follows.
Write down half-life measured for item Cc1ccccc1C(=O)Nc1ccc(C(=O)N2CCCC(NCCCCCN3CCOCC3)c3cc(Cl)ccc32)c(C)c1 (stereo not given) 7.5

* * *

As shown below, each of these molecules has a reported Cmax value.
assay: Cmax in C57BL/6 mouse at 2 mg/kg, sc by LC-MS analysis; type: ADME, organism-based; parameters: dose 2 mg/kg, route sc; conditions: in vivo
Write the answer as a number in ng/mL, unit excluded.

Cc1ccccc1C(=O)Nc1ccc(C(=O)N2CCCC(NCCCCN3CCOCC3)c3cc(Cl)ccc32)c(C)c1 (stereo unspecified) : 365
Cc1ccccc1C(=O)Nc1ccc(C(=O)N2CCCC(O)c3cc(Cl)ccc32)c(C)c1 (stereo unspecified) : 394
Cc1ccccc1C(=O)Nc1ccc(C(=O)N2CCCC(NCCN3CCOCC3)c3cc(Cl)ccc32)c(C)c1 (stereo unspecified) : 679
Cc1ccccc1C(=O)Nc1ccc(C(=O)N2CCCC(NCCCN3CCOCC3)c3cc(Cl)ccc32)c(C)c1 (stereo unspecified) : 453
Cc1ccccc1C(=O)Nc1ccc(C(=O)N2CCCC(NCCCN3CCN(C)CC3)c3cc(Cl)ccc32)c(C)c1 (stereo unspecified) : 518

// next item, Cmax requested
Quick one: give measured Cmax for Cc1ccccc1C(=O)Nc1ccc(C(=O)N2CCCC(NCCCc3ccncc3)c3cc(Cl)ccc32)c(C)c1 (stereo unspecified) 360

* * *

test: Elimination rate constant in C57BL/6 mouse at 2 mg/kg, sc by LC-MS analysis; format: ADME, organism-based; conditions: in vivo
result.type: k el (s⁻¹)
Use s⁻¹ as the unit, but write only the number.

Use these answered entries as a reference point.
Cc1ccccc1C(=O)Nc1ccc(C(=O)N2CCCC(NCCC(=O)N3CCOCC3)c3cc(Cl)ccc32)c(C)c1 (stereo not given) : 0.000667
Cc1ccccc1C(=O)Nc1ccc(C(=O)N2CCCC(O)c3cc(Cl)ccc32)c(C)c1 (stereo not given) [TOLVAPTAN] : 4.72e-05
Cc1ccccc1C(=O)Nc1ccc(C(=O)N2CCCC(NCCCCN3CCOCC3)c3cc(Cl)ccc32)c(C)c1 (stereo not given) : 3.89e-05
Cc1ccccc1C(=O)Nc1ccc(C(=O)N2CCCC(NCCN3CCOCC3)c3cc(Cl)ccc32)c(C)c1 (stereo not given) : 0.000417
Cc1ccccc1C(=O)Nc1ccc(C(=O)N2CCCC(NCCCCCN3CCOCC3)c3cc(Cl)ccc32)c(C)c1 (stereo not given) : 2.58e-05

Let's switch to this compound now.
Retrieve k el measured for Cc1ccccc1C(=O)Nc1ccc(C(=O)N2CCCC(NCCCN3CCCCC3)c3cc(Cl)ccc32)c(C)c1 (stereo not given) and print it. 5e-05
